The reported numbers originate from PubChem BioAssay (NCI).

# Tested on: OVCAR-8 ovarian
# experiment_notes: NCI tumour cell line growth inhibition, 48 h
Measured TGI accompanies every entry in the list below.
readout_label: TGI

- CC(=O)c1sc2c(c1OC(=O)c1ccccc1)c(=O)n(-c1ccccc1)c(=S)n2-c1ccccc1: > 28.3 µM
- NCCCC(N)(C(=O)O)C(F)F (stereo not given): > 1090 µM
- COc1ccccc1NC(=O)C(=O)C(c1cnc2ccc([N+](=O)[O-])cc2n1)[N+](=O)[O-] (stereo not given): > 100 µM
- COc1ccc(OC)c(CCc2ccccc2CC(=O)O)c1: > 100 µM
- c1ccc(N2CCN(CCCN3CCc4c([nH]c5ccccc45)C3c3cccnc3)CC2)cc1 (stereo not given): > 100 µM
